I'd be grateful if you could share measured EC50 for these entries.
- TARGET OF ASSAY: T1, human PD-L1 on cells (human, UniProt Q9NZQ7 19-290)
- T1 construct: whole, on cells; also called HEK-PD-L1 cells; PD-L1-expressing HEK 293 cells
- T1 sequence (Q9NZQ7 19-290): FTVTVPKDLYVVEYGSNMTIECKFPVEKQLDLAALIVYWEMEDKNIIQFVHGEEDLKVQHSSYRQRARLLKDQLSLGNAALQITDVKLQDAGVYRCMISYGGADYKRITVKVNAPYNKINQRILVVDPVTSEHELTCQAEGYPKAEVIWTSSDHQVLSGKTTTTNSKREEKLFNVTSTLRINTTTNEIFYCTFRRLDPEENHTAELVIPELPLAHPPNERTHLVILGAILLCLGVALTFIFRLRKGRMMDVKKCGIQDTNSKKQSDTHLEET
- ASSAY NAME: flow cytometry on monocyte-derived dendritic cells; PE anti-human Fc, MFI
# unit: nM | format: bare number

Challenge: Give the value of EC50 reported for the following: chimeric anti-PD-L1 antibody 15E9 (antibody, human IgG1, V domains shown) VH: QSVEESGGRLVTPGTPLTLTCTVSGFDISNYWMSWVRQAPGKGLEYIGIISTGGNTWYASWVKGRFTISKTSTTVDLKMTSLTTEDTATYFCVRVVIYGGTTSSFNLWGPGTLVTVSS VL: QVLTQTASPVSAAVGGTVTINCQSSQNVYNKIRLSWFQQKSGQPPKELIYAASSLASGVPSRFKGSGSGTEFTLTISDLECDDAATYYCQGGYSGPIYAFGGGTEVVVK
Response given: 1.1

Challenge: Give the value of EC50 reported for the following: chimeric anti-PD-L1 antibody 43G2 (antibody, human IgG1, V domains shown) VH: QSVEESGGRLVTPGTPLTLTCTVSGFSLSSYAMGWVRQAPGEGLEYIGFIDTHGSAYYATWAKGRFTISRTSTTVDLKITSPTTEDTATYFCARNVWTNAGYFNLWGPGTLVTVSS VL: DVVMTQTPSSVSAAVGGTVTIKCQASQNIYTNLAWYQQKPGQPPKLLIYSASTLASGVPSRFKGSGSGTQFTLTISDLECADAATYYCQTYGALIINGGAFGGGTEVVVK
Response given: 1.6

Challenge: Give the value of EC50 reported for the following: chimeric anti-PD-L1 antibody 23D12 (antibody, human IgG1, V domains shown) VH: QSVEESGGRLVTPGTPLTLTCTVSGFSLSNYVMGWVRQAPGKGLEYIGIISNSDNTYYATWATGRFTISKTSTTVDLKMTSLTTEDTATYFCARVDTYYNDFNLWGPGTLVTVSS VL: QVLTQTPSSVEAAVGGTVTIKCQASEDIERYLAWYQQKPGQPPKQLIYDASKLASGVSSRFKGSGSGTEFTLTISGVQCDDAATYYCQHGYIYSSGNPFGGGTEVVVK
Response given: 1.7

Reference source: patent US20190218296A1
